B1: CDS2 (parent)
chain: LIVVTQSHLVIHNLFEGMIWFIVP

- Variants of: B1
- assay-method-text: protein stability index of a GFP-peptide fusion (GPS, HEK-293T) (PSI 1-6); higher = more stable;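 further: lentivirally expressed fusions sorted by FACS into six bins by GFP to DsRed ratio, PSI derived from sequencing read proportions per bin multiplied by bin number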
- run-conditions: c terminus: a fixed tail appended
Quick list: protein stability index per entry.
Give the figure by itself; no unit, no explanation.

Example variants with recorded protein stability index:
| sequence-change | protein stability index |
| --- | --- |
| Q6S | 2.58 |
| Q6T | 2.85 |
| Q6D | 4.07 |
| H8V | 4.43 |
| V4S | 4.44 |
| T5Q | 3.1 |
| P24G | 3.29 |
| W20G | 2.19 |

Q. So what does the record say about protein stability index for `I11C` ?
A. 3.04

Q. Then `I22Y` ?
A. 2.27

Q. Then `V23Q` ?
A. 1.52

Hello, the source for this data is the supplement of paper PMC10567573, in case you need it.
